- assay_overview: Hemolytic assay
- Format: cell-based
- applied_conditions: chicken, red blood cells; hemolysis; read-out: LC50 Chicken RBCs
Residues, ends and D or L forms follow the SMILES beside them.
endpoint_label: CC50 at 1 hour
The answer should read as a number with its unit following.

compound	CC50 at 1 hour
CC[C@H](C)[C@H](NC(=O)[C@H](CCCNC(=N)N)NC(=O)[C@H](CCCCN)NC(=O)[C@H](CC(C)C)NC(=O)[C@H](Cc1c[nH]c2ccccc12)NC(=O)[C@H](Cc1c[nH]c2ccccc12)NC(=O)[C@@H](N)Cc1c[nH]c2ccccc12)C(=O)N[C@@H](Cc1c[nH]c2ccccc12)C(N)=O [TetraF2W-KR, WWWLKRIW] (H-WWWLKRIW-NH2; N-terminus and C-terminus assumed)	35 µM

API: the following record is the query input.
Value of measured CC50 at 1 hour for the entry CC[C@H](C)[C@H](NC(=O)[C@H](CCCCN)NC(=O)[C@H](CCCCN)NC(=O)[C@H](CC(C)C)NC(=O)[C@H](Cc1c[nH]c2ccccc12)NC(=O)[C@H](Cc1c[nH]c2ccccc12)NC(=O)[C@@H](N)Cc1c[nH]c2ccccc12)C(=O)N[C@@H](Cc1c[nH]c2ccccc12)C(N)=O [TetraF2W-KK, WWWLKKIW] (H-WWWLKKIW-NH2; N-terminus and C-terminus assumed) : 50 µM

* * *

- System: S. aureus USA300
- Assay type: cell-based, Staphylococcus aureus
- applied_conditions: USA300, pH 7.4
Residues, ends and D or L forms follow the SMILES beside them.
endpoint_label: Antimicrobial activity (MIC) Normal medium (pH 7.4) (μM)
Give the number; μM is assumed, so skip it.

Recorded Antimicrobial activity (MIC) Normal medium (pH 7.4) (compound CC[C@H](C)[C@H](NC(=O)[C@H](CCCNC(=N)N)NC(=O)[C@H](CCCCN)NC(=O)[C@H](CC(C)C)NC(=O)[C@H](Cc1c[nH]c2ccccc12)NC(=O)[C@H](Cc1c[nH]c2ccccc12)NC(=O)[C@@H](N)Cc1c[nH]c2ccccc12)C(=O)N[C@@H](Cc1c[nH]c2ccccc12)C(N)=O [TetraF2W-KR, WWWLKRIW] (H-WWWLKRIW-NH2; N-terminus and C-terminus assumed) ): 3.1

Antimicrobial activity (MIC) Normal medium (pH 7.4) reported for this compound CC[C@H](C)[C@H](NC(=O)[C@H](CCCCN)NC(=O)[C@H](CCCNC(=N)N)NC(=O)[C@H](CC(C)C)NC(=O)[C@H](Cc1c[nH]c2ccccc12)NC(=O)[C@H](Cc1c[nH]c2ccccc12)NC(=O)[C@@H](N)Cc1c[nH]c2ccccc12)C(=O)N[C@@H](Cc1c[nH]c2ccccc12)C(N)=O [TetraF2W-RK, WWWLRKIW] (H-WWWLRKIW-NH2; N-terminus assumed) : 3.1

* * *

- assay_overview: MTS cytotoxicity assay
- Format: cell-based
- applied_conditions: human, HeLa CCL-2 cells
Residues, ends and D or L forms follow the SMILES beside them.
endpoint_label: CC50 at 1 hour (µM)
Only the number, expressed in µM, is required.

molecule	unit_of_measurement	CC50 at 1 hour
CC[C@H](C)[C@H](NC(=O)[C@H](CCCNC(=N)N)NC(=O)[C@H](CCCNC(=N)N)NC(=O)[C@H](CC(C)C)NC(=O)[C@H](Cc1c[nH]c2ccccc12)NC(=O)[C@H](Cc1c[nH]c2ccccc12)NC(=O)[C@@H](N)Cc1c[nH]c2ccccc12)C(=O)N[C@@H](Cc1c[nH]c2ccccc12)C(N)=O [TetraF2W-RR, WWWLRRIW] (H-WWWLRRIW-NH2; N-terminus assumed)	µM	60

Proceed to the following item.
Lab note: measured CC50 at 1 hour of CC[C@H](C)[C@H](NC(=O)[C@H](CCCCN)NC(=O)[C@H](CCCCN)NC(=O)[C@H](CC(C)C)NC(=O)[C@H](Cc1c[nH]c2ccccc12)NC(=O)[C@H](Cc1c[nH]c2ccccc12)NC(=O)[C@@H](N)Cc1c[nH]c2ccccc12)C(=O)N[C@@H](Cc1c[nH]c2ccccc12)C(N)=O [TetraF2W-KK, WWWLKKIW] (H-WWWLKKIW-NH2; N-terminus and C-terminus assumed) was 70

* * *

- Test system: Candida albicans ATCC 10231
- Assay type: cell-based
- applied_conditions: ATCC 10231, 48 h
Residues, ends and D or L forms follow the SMILES beside them.
endpoint_label: MIC Candida albicans (µM)
Could you give me the number in µM? Just the number is fine.

# MIC Candida albicans of CC[C@H](C)[C@H](NC(=O)[C@H](CCCCN)NC(=O)[C@H](CCCNC(=N)N)NC(=O)[C@H](CC(C)C)NC(=O)[C@H](Cc1c[nH]c2ccccc12)NC(=O)[C@H](Cc1c[nH]c2ccccc12)NC(=O)[C@@H](N)Cc1c[nH]c2ccccc12)C(=O)N[C@@H](Cc1c[nH]c2ccccc12)C(N)=O [TetraF2W-RK, WWWLRKIW] (H-WWWLRKIW-NH2; N-terminus assumed) = 12.5

Hey, just so you know, these numbers are from patent US20190048052A1.
